molecular target: Receptor tyrosine-protein kinase erbB-2 (Homo sapiens); experiment: biochemical; type: cell-based, Insect cells; settings: read-out: IC50; note: in other assays of this panel Not Active means under 50% inhibition at 10 µM;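 note: inhibition of HER2 kinase enzyme activity, measured with Poly(Glu:Tyr) as the phosphorylation substrate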
Sequence (P04626 whole entry): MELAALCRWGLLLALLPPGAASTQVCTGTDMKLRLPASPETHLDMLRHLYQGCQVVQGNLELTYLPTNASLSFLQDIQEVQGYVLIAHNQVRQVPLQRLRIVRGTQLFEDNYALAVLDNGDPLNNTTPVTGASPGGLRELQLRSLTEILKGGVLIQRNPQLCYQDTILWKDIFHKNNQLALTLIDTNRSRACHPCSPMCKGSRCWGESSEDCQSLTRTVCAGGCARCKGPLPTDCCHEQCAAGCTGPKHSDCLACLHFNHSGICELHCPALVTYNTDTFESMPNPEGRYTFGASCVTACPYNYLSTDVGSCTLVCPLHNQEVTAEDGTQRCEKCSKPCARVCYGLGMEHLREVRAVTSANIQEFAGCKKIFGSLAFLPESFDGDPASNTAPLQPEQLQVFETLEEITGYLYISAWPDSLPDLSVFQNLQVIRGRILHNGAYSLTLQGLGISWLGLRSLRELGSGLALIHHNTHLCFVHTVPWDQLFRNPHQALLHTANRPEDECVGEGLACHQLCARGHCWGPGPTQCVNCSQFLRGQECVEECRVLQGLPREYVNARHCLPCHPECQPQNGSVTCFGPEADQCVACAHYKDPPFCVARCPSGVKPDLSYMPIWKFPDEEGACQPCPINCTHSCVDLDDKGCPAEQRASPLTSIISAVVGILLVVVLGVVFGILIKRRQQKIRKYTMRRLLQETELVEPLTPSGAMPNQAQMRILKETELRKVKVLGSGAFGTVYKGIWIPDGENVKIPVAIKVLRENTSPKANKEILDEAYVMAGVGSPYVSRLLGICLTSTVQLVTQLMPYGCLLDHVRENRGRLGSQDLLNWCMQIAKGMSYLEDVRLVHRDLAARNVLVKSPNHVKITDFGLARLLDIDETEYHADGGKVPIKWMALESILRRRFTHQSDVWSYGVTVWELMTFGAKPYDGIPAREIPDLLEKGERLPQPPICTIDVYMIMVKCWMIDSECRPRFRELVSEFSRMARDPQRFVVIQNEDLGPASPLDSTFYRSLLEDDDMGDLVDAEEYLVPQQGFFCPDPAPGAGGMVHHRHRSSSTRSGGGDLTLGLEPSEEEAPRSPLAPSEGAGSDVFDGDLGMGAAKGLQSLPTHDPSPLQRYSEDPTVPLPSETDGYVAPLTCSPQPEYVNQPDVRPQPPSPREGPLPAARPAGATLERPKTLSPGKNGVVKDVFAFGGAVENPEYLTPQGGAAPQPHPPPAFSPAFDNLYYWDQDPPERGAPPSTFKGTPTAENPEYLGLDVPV
Parameter: IC50. Scope: all listed entries.
REPORTED ENDPOINT: IC50 (µM)

{"columns": ["COMPOUND", "MEASUREMENT UNIT", "MEASURED VALUE"],
 "data": [
  ["CCCCc1oc2ccccc2c1C(=O)c1cc(I)c(OCCN(CC)CC)c(I)c1", "µM", 9.15],
  ["Cc1cc(C(C#N)c2ccc(Cl)cc2)c(Cl)cc1NC(=O)c1cc(I)cc(I)c1O (centres undefined)", "µM", 2.47],
  ["CN(C)CCCN1c2ccccc2Sc2ccc(Cl)cc21", "µM", 19.4],
  ["CC/C(=C(\\c1ccccc1)c1ccc(OCCN(C)C)cc1)c1ccccc1", "µM", 2.95]
]}

###

molecular target: C-C chemokine receptor type 4 (Homo sapiens); format: cell membranes, Chem-1, Membrane; conditions: chem-1; note: in other assays of this panel Not Active means under 50% inhibition at 10 µM
Sequence (P51679 whole entry): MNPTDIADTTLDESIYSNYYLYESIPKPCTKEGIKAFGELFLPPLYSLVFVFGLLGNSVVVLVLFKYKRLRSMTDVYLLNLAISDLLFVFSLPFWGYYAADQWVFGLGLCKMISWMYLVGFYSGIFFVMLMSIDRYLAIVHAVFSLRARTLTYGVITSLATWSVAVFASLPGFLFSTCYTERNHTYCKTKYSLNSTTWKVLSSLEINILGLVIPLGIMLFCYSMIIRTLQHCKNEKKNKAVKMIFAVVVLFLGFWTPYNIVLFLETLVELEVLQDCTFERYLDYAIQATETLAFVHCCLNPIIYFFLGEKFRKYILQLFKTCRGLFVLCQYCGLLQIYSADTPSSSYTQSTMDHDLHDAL

{"columns": ["SUBSTANCE", "Ki"],
 "data": [
  ["LEAD (II) ACETATE", "Not Active"],
  ["CADMIUM ACETATE", "Not Active"],
  ["LIPOPOLYSACCHARIDE E. COLI O55:B5", "Not Active"],
  ["SODIUM NITROPRUSSIDE", "Not Active"]
]}

###

molecular target: Delta-type opioid receptor (Homo sapiens, UniProt P41143); format: cell membranes, HEK293, Membrane; details: hek293; note: in other assays of this panel Not Active means under 50% inhibition at 10 µM
Sequence (P41143 whole entry): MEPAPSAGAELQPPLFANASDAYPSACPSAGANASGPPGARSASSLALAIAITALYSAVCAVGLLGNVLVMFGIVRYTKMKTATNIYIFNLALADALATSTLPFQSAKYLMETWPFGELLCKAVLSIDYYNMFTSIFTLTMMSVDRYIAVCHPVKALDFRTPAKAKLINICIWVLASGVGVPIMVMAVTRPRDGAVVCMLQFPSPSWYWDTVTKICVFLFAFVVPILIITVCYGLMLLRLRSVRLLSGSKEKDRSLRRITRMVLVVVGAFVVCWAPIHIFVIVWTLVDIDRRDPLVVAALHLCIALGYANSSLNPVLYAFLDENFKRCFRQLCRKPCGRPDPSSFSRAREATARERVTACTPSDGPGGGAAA

{"columns": ["COMPOUND", "TESTED ON", "IC50"],
 "data": [
  ["N#CC(C#N)=Cc1ccc(O)c(O)c1", "Delta-type opioid receptor (Homo sapiens, UniProt P41143)", "Not Active"],
  ["O=NN(CCCl)C(=O)NC1CCCCC1", "Delta-type opioid receptor (Homo sapiens, UniProt P41143)", "Not Active"],
  ["CC(C)N1CCN(c2ccc(OCC3COC(Cn4cncn4)(c4ccc(Cl)cc4Cl)O3)cc2)CC1 (stereo not given)", "Delta-type opioid receptor (Homo sapiens, UniProt P41143)", "Not Active"],
  ["OCCN(CCO)c1nc(N2CCCCC2)c2nc(N(CCO)CCO)nc(N3CCCCC3)c2n1", "Delta-type opioid receptor (Homo sapiens, UniProt P41143)", "Not Active"],
  ["Cc1noc(NS(=O)(=O)c2ccc(N)cc2)c1C", "Delta-type opioid receptor (Homo sapiens, UniProt P41143)", "Not Active"]
]}

###

biological target: Progesterone receptor (Bos taurus); assay: DRUGMATRIX: Progesterone radioligand binding (ligand: [3H] R-5020); assay type: tissue-based, Uterus; conditions: Not Active = under 50% inhibition at 10 µM; read-out: Ki
Sequence (Q690N0 whole entry): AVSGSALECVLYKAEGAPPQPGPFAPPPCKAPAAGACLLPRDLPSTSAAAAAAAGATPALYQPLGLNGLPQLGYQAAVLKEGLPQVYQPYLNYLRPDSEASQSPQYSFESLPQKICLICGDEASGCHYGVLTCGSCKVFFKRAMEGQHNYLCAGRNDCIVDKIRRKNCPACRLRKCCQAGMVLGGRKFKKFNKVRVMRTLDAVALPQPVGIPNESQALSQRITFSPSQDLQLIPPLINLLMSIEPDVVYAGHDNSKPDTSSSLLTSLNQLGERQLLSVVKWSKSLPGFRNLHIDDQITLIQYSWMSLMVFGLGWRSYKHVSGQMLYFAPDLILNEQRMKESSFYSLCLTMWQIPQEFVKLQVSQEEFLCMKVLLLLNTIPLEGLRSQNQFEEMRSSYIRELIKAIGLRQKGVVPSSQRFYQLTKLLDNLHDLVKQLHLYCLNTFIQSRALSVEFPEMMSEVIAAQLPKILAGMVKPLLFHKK

{"columns": ["COMPOUND", "MEASUREMENT UNIT", "Ki"],
 "data": [
  ["CC(=O)[C@@]1(O)CC[C@H]2[C@@H]3C[C@H](C)C4=CC(=O)CC[C@]4(C)[C@H]3CC[C@@]21C", "nM", 93],
  ["CC1(C)O[C@@H]2C[C@H]3[C@@H]4CCC5=CC(=O)C=C[C@]5(C)[C@@]4(F)[C@@H](O)C[C@]3(C)[C@]2(C(=O)CO)O1 [TRIAMCINOLONE ACETONIDE]", "nM", 23],
  ["C[C@]12CCC(=O)C=C1CC[C@@H]1[C@@H]2CC[C@@]2(C)[C@H]1CC[C@]2(C)O", "nM", 33],
  ["CCCC1O[C@@H]2C[C@H]3[C@@H]4CCC5=CC(=O)C=C[C@]5(C)[C@H]4[C@@H](O)C[C@]3(C)[C@]2(C(=O)CO)O1 (stereo partly drawn) [BUDESONIDE]", "nM", 27],
  ["CC1(C)O[C@@H]2C[C@H]3[C@@H]4CCC5=CC(=O)CC[C@]5(C)[C@@]4(F)[C@@H](O)C[C@]3(C)[C@]2(C(=O)CCl)O1 [HALCINONIDE]", "nM", 0.121],
  ["Cc1ccc(-c2cc(C(F)(F)F)nn2-c2ccc(S(N)(=O)=O)cc2)cc1", "nM", 2360],
  ["C[C@]12CC[C@@H]3c4ccc(O)cc4CC[C@H]3[C@@H]1CCC2=O", "nM", 2100],
  ["CC/C(=C(\\c1ccccc1)c1ccc(OCCN(C)C)cc1)c1ccccc1", "nM", 2590]
]}

###

target: Endothelin-1 receptor (Homo sapiens); format: cell membranes, CHO-K1, Membrane; conditions: cho-k1; note: in other assays of this panel Not Active means under 50% inhibition at 10 µM
Sequence (P25101 whole entry): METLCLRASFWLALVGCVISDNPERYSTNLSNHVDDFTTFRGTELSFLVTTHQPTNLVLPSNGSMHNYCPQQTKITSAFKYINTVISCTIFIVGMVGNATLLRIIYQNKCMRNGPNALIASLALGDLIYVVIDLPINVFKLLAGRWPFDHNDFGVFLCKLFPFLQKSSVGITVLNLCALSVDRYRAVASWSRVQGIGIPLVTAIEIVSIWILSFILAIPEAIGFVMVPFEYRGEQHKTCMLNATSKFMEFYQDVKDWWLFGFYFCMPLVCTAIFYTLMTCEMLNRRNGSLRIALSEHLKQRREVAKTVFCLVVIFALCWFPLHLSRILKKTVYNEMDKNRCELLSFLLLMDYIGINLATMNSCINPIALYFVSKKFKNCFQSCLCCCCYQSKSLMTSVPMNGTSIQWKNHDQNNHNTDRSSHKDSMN

{"columns": ["COMPOUND", "IC50"],
 "data": [
  ["O=c1[nH]c(=O)n([C@H]2C[C@H](O)[C@@H](CO)O2)cc1I [IDOXURIDINE]", "Not Active"],
  ["CC[C@@H](CO)NC(=O)[C@@H]1C=C2c3cccc4[nH]cc(c34)C[C@H]2N(C)C1 [METHYLERGONOVINE]", "Not Active"],
  ["Cc1oncc1C(=O)Nc1ccc(C(F)(F)F)cc1 [LEFLUNOMIDE]", "Not Active"],
  ["N[C@@H]1[C@H]2CN(c3nc4c(cc3F)c(=O)c(C(=O)O)cn4-c3ccc(F)cc3F)C[C@@H]12 [TROVAFLOXACIN]", "Not Active"],
  ["N[C@@H](Cc1cc(I)c(Oc2ccc(O)c(I)c2)c(I)c1)C(=O)O [LIOTHYRONINE]", "Not Active"],
  ["Cc1ccc(/N=C/N(C)/C=N/c2ccc(C)cc2C)c(C)c1 [AMITRAZ]", "Not Active"],
  ["CN(C)CCCN1c2ccccc2Sc2ccc(Cl)cc21 [CHLORPROMAZINE]", "Not Active"],
  ["Cc1ccc(-c2cc(C(F)(F)F)nn2-c2ccc(S(N)(=O)=O)cc2)cc1 [CELECOXIB]", "Not Active"]
]}

###

molecular target: C-C chemokine receptor type 2 (Homo sapiens, UniProt P41597); type: cell membranes, CHO-K1, Membrane; conditions: cho-k1; note: in other assays of this panel Not Active means under 50% inhibition at 10 µM
Sequence (P41597 whole entry): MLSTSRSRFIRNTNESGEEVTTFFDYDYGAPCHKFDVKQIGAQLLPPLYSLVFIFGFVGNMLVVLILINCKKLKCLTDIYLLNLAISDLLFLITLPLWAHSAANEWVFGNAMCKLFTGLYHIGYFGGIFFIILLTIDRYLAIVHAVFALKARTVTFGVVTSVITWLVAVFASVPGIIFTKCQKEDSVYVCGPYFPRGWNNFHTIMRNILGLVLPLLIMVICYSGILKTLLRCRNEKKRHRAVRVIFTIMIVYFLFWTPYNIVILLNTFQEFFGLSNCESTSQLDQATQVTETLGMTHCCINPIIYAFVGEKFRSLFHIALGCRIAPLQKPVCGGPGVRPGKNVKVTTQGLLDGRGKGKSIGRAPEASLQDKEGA

{"columns": ["SUBSTANCE", "Ki"],
 "data": [
  ["SODIUM NITROPRUSSIDE", "Not Active"],
  ["LIPOPOLYSACCHARIDE E. COLI O55:B5", "Not Active"],
  ["CADMIUM ACETATE", "Not Active"],
  ["LEAD (II) ACETATE", "Not Active"]
]}

###

Biological target: 5-hydroxytryptamine receptor 2C (Homo sapiens, UniProt P28335)
Sequence (P28335 whole entry): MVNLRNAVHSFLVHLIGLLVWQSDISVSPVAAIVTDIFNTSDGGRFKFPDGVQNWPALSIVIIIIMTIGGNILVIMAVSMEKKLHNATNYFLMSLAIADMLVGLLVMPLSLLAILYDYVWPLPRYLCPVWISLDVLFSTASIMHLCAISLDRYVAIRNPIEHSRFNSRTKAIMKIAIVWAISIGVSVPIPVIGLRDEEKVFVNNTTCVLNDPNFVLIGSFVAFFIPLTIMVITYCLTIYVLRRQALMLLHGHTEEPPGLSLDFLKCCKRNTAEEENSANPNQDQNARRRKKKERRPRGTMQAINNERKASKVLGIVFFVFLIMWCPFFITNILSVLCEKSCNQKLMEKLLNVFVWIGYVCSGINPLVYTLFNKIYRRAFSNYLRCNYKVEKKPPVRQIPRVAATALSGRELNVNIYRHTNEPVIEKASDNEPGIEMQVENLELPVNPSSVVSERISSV
Assay: DRUGMATRIX: Serotonin (5-Hydroxytryptamine) 5-HT2C radioligand binding (ligand: [3H] Mesulergine)
Format: cell membranes, CHO-K1, Membrane
Settings: Not Active = under 50% inhibition at 10 µM; read-out: IC50
Response field label takes criterion met when IC50 is strictly below 200 nM and criterion not met in all other cases.

{"columns": ["COMPOUND", "TESTED ON", "CLASSIFICATION"],
 "data": [
  ["CC/C(=C(\\c1ccccc1)c1ccc(OCCN(C)C)cc1)c1ccccc1 [TAMOXIFEN]", "5-hydroxytryptamine receptor 2C (Homo sapiens, UniProt P28335)", "criterion not met"],
  ["CC(C)[C@@]1(NC(=O)[C@@H]2C[C@@H]3c4cccc5[nH]cc(c45)C[C@H]3N(C)C2)O[C@@]2(O)[C@@H]3CCCN3C(=O)[C@H](Cc3ccccc3)N2C1=O.CS(=O)(=O)O [DIHYDROERGOCRISTINE MESYLATE]", "5-hydroxytryptamine receptor 2C (Homo sapiens, UniProt P28335)", "criterion not met"],
  ["CC(C)[C@H]1C(=O)N2CCC[C@H]2[C@]2(O)O[C@](NC(=O)[C@@H]3C=C4c5cccc6[nH]cc(c56)C[C@H]4N(C)C3)(C(C)C)C(=O)N12 [ERGOCORNINE]", "5-hydroxytryptamine receptor 2C (Homo sapiens, UniProt P28335)", "criterion met"],
  ["CC(C)N1CCN(c2ccc(OCC3COC(Cn4cncn4)(c4ccc(Cl)cc4Cl)O3)cc2)CC1 (configuration not stated) [TERCONAZOLE]", "5-hydroxytryptamine receptor 2C (Homo sapiens, UniProt P28335)", "criterion not met"],
  ["CC[C@@H](CO)NC(=O)[C@@H]1C=C2c3cccc4[nH]cc(c34)C[C@H]2N(C)C1 [METHYLERGONOVINE]", "5-hydroxytryptamine receptor 2C (Homo sapiens, UniProt P28335)", "criterion met"],
  ["O=C(CCCN1CC=C(n2c(=O)[nH]c3ccccc32)CC1)c1ccc(F)cc1 [DROPERIDOL]", "5-hydroxytryptamine receptor 2C (Homo sapiens, UniProt P28335)", "criterion not met"],
  ["CN(C)CCCN1c2ccccc2Sc2ccccc21 [PROMAZINE]", "5-hydroxytryptamine receptor 2C (Homo sapiens, UniProt P28335)", "criterion met"]
]}
